Test system: TO-N3-2 (biotin conjugate)
Protocol description: pull-down binding Z-score (relative to library population); higher = stronger binding
Condition: RNA library: Library-2
Kindly return YES if reported pull-down binding Z-score is no lower than 1; return NO if it is lower.

Would you please look over these solved cases?
UCUUAAGAGAGGUGAUAAAAGUGUAUAUUACACUAGUAAUCCUACCACAUUCCACCUAGAUGGUGAAGUUAUCACCUUUGACAAUCUUAAGA; NO
CGCUGCUGGCUGCCUUCCAGCG [hsa-mir-4533]; NO
UGUGUUCAGUGGAACCAAGGUAAACACA [hsa-mir-624]; YES
GUGAGCUCAGCUCCCUGCCUCAC [hsa-mir-3622b]; NO
GGGUGAUACACAAGCCUGACCCUCCC [hsa-mir-6793]; NO
AUAGUUGUGGGGUAGUGAUUUUACCCUGUUCAGGAGAUAACUAU [hsa-let-7f-1]; NO
CAGGUGUUCUUAAAAUCACCUG [hsa-mir-875]; NO
GGCCUGGGCCUGGGCCUGGGCCUGGGCCUGGGCCUG [r(GGCCUG)6]; NO

q: For this sequence, is measured pull-down binding Z-score 1 or higher? AUGGGGCAGCUGGGAUGGUCCAAAAGGGUGGCCUCA [hsa-mir-1226]
a: YES

q: For this sequence, is measured pull-down binding Z-score 1 or higher? ACUACUAUAGGCCGCUGGGAAGCAGU [hsa-mir-130b]
a: NO

====

System: TO-3-N3 (biotin conjugate)
Protocol description: pull-down binding Z-score (relative to library population); higher = stronger binding
Condition: RNA library: Library-2
Parameter: pull-down binding Z-score
# answer = number (no unit)

# count of solved cases: 2
CAGAUACUUUUUAAAAUUUGUUUGAGUUGAGGCAGAUUAAAUAUCUG [hsa-mir-4742]; -0.76
GGAGCUCUGUCCUGUCUCACUCAUUGCUCC [hsa-mir-6749]; -0.331

Please turn your attention to the following entry.
q: Tell me pull-down binding Z-score reported for UAGUACAUUUAUUAGUGAUGAAGUUGCGAGAGACUUGUCACUACAGUUUAAAAGACCAAUAAAUCCUACUG [SHAPE_invivo_SARS-CoV-2_Multi_21_ComplexLevel_1]
a: 0.561

====

Test system: TO-N3-2 (biotin conjugate)
Protocol description: pull-down binding Z-score (relative to library population); higher = stronger binding
Condition: RNA library: Library-2
Kindly return criterion met if reported pull-down binding Z-score is no lower than -0.7; return criterion not met if it is lower.

Would you please look over these solved cases?
GAGACACCCGCUACCUGGUGUU [hsa-mir-4321]; criterion met
UGUGGCCUUUUUGCCUUUUCUAAAGGCCACAU [hsa-mir-1250]; criterion met
CAAGCACACAGGGCCUGGGACUAGCAUG [hsa-mir-4728]; criterion met
AUCUGAAUUCUUCUAGAGUUCCUGAU; criterion not met
CUUGGCUUCAAUUUACUCCCAGG [hsa-mir-4446]; criterion met

q: For this sequence, is measured pull-down binding Z-score -0.7 or higher? CCACAUAGAUCAUCCAAAUCCUAAAGGAUUUUGUGACUUAAAAGG [SHAPE_invivo_SARS-CoV-2_Motif_251]
a: criterion met

q: For this sequence, is measured pull-down binding Z-score -0.7 or higher? GGCAUCUGCGGGCC [IAV_invivo_NP_5_Motif_21+IAV_invivo_NP_5_Motif_21]
a: criterion met

q: For this sequence, is measured pull-down binding Z-score -0.7 or higher? UAUAACUUGAAGAAUUCAAAUAGUCAUG [hsa-mir-3146]
a: criterion not met

q: For this sequence, is measured pull-down binding Z-score -0.7 or higher? `AUUGGUGCAGGUAUAUGCGCUAGU`
a: criterion not met
